Parameter GI50: see the listing below.
System: RPMI-8226
Assay: NCI tumour cell line growth inhibition, 48 h
The source made the active and inactive calls. No stated cut-off is given here; in the data, active = GI50 up to about 1.1 µM and inactive = higher.

Some molecules with recorded GI50:
MOLECULE	GI50
Cc1ccc(S(=O)(=O)NCCN(CCNS(=O)(=O)c2ccc(C)cc2)S(=O)(=O)c2ccc(C)cc2)cc1	56.2 µM (inactive)
COC(=O)c1cc(C(=CCC[C@H]2CC[C@@]3(C)C(CCC4C3CC[C@@]3(C)C4CC[C@@H]3C(C)CCCC(C)C)C2)c2cc(Cl)c(O)c(C(=O)OC)c2)cc(Cl)c1O (stereo not given in full)	> 10 µM (inactive)
COc1cc2c(cc1OC)C(SC)C(=O)N(Cc1cccc(OC)c1OC)CC2 (stereo not given)	3.61 µM (inactive)
Cc1cnc2c(c1)C(=O)C1=C(OC(C)(C)CC1O)C2=O (stereo not given)	13.6 µM (inactive)
O=C(O)c1ccc(C2=Cc3cc(Cl)ccc3OC2)cc1	> 100 µM (inactive)

Q: Find GI50 (RPMI-8226) for the entry COC(=O)C12OC3CO[Si](C(C)C)(C(C)C)O[Si](C(C)C)(C(C)C)OC3C1Oc1nc(=O)ccn12 (stereo not given)
Ans: 13.7 µM (inactive)

Q: How about "CCOC(=O)c1cc(C2=CCNC2=O)c(-c2cc(C)no2)[nH]1" ?
Ans: 36.7 µM (inactive)

Q: How about N#CC1C(C#N)C2(c3ccccc3)C(c3ccccc3)=NN(c3ccccc3)CC12 (stereo not given) ?
Ans: > 100 µM (inactive)

Q: How about "Oc1ccc(-c2nc3ccccc3s2)cc1" ?
Ans: 27.1 µM (inactive)

Q: How about "N=C(N)SCc1cc(Cl)cc(Cl)c1O" ?
Ans: 19.8 µM (inactive)

Q: How about "O=[N+]([O-])c1c(/C=N/Nc2ccccc2)oc(-c2ccc3c(c2)OCO3)c1-c1ccc2c(c1)OCO2" ?
Ans: 5.78 µM (inactive)

Q: How about "CC(C)(c1ccc(OC#N)cc1)c1ccc(OC#N)cc1" ?
Ans: > 52.6 µM (inactive)

Q: How about "Cn1cnc([N+](=O)[O-])c1Sc1nc2ccccc2s1" ?
Ans: 12.5 µM (inactive)

Q: How about O=C(O)CCC(NC(=O)c1ccc(Nc2nc3cc(C(F)(F)F)ccc3nc2-c2ccccc2)cc1)C(=O)O (stereo not given) ?
Ans: > 63.1 µM (inactive)

Q: How about "Cc1cc(C)n(C(=O)CSc2nc3ccc(I)cc3c(=O)n2Cc2ccccc2)n1" ?
Ans: > 100 µM (inactive)

Q: How about "CC1(C)N=C(N)N=C(N)N1c1cccc(OCc2cccc(N)c2)c1" ?
Ans: 56.1 µM (inactive)

Q: How about "Cc1ccc(N2C(=O)/C(=C/c3ccc(N(CCC#N)CCC#N)cc3)N=C2COc2ccc(Cl)cc2Cl)cc1" ?
Ans: > 100 µM (inactive)

Q: How about CSC1=C(C#N)C(=O)N(c2ccc(C)cc2)C(=O)C1C#N (stereo not given) ?
Ans: > 100 µM (inactive)

Q: How about "COc1ccc(NC(=O)Oc2cc(C)c3ccc(=O)cc-3o2)c(OC)c1.COc1ccc(NC(=O)Oc2ccc3c(C)cc(=O)oc3c2)c(OC)c1" ?
Ans: > 100 µM (inactive)

Q: How about "OCCCNCc1ccccn1" ?
Ans: > 100 µM (inactive)

Q: How about O=[N+]([O-])c1cccc(C2N3CCCCC3[C@@H]3c4[nH]c5ccccc5c4CCN23)c1 (stereo not given in full) ?
Ans: 10.9 µM (inactive)

Q: How about COC1/C=C/C(C)C(C(C)C(OC)C(C)CCC(=O)C(C)C(CC(=O)O)OC)OC(=O)/C=C/C=C(\C)CC(OC)C(OC)C2=CC(=O)O[C@@H](C(C)C(OC)CC(OC)/C=C/C(C)C(O)C1)[C@H]2O (stereo not given in full) ?
Ans: 0.0959 µM (active)

Q: How about "CCc1ccccc1NC(=O)C1=C(C)NC(C)=C(C(=O)Nc2ccccc2CC)C1c1ccc(NC(C)=O)cc1" ?
Ans: 17 µM (inactive)

Q: How about "COc1ccc(/C=C/C(=O)c2c(-c3ccccc3)nn(C)c(=O)c2N2CCOCC2)cc1" ?
Ans: 38.5 µM (inactive)

Q: How about COc1ccc(OC(C)C(=O)O)c2c1CCCC2=O (stereo not given) ?
Ans: > 100 µM (inactive)
